Each record here notes measured inhibition at 2 µM.
Target: recombinant CYP11B2 (Homo sapiens)
Assay: Inhibition of CYP11B2 activity in a reconstructed enzyme system (HPLC with UV detector)
Type: biochemical
Settings: compounds 2_xx, 3_xx, 4_01; test compound final concentration ≤2 μM; corticosterone substrate; 30 minutes at 37° C.; read-out: Level of CYP11B2 activity inhibition

Would you please look over these solved cases?
{"molecule": "CN1CC2CCC(C1)N2c1c(F)cc(S(=O)(=O)n2ccc3c(-c4ccccn4)cncc32)cc1F [Compound 3_19]", "measure.name": "inhibition at 2 µM", "meas.value": "35 to 100%"}
{"molecule": "N#Cc1ccc(-c2cncc3c2ccn3S(=O)(=O)c2cc(F)c(N3CC4CNCC4C3)c(F)c2)cn1 (stereo not shown) [Compound 3_28]", "measure.name": "inhibition at 2 µM", "meas.value": "35 to 100%"}
{"molecule": "CC(C)N1CCN(c2c(F)cc(S(=O)(=O)n3ccc4c(-c5ccccn5)cncc43)cc2F)CC1 [Compound 3_11]", "measure.name": "inhibition at 2 µM", "meas.value": "35 to 100%"}

The record that follows has no inhibition at 2 µM shown yet.
Field inhibition at 2 µM (recombinant CYP11B2 (Homo sapiens)), entry O=S(=O)(c1cc(F)c(N2CC3(CNC3)C2)c(F)c1)n1ccc2c(-c3ccccn3)cncc21 [Compound 3_21] : 20 to 100%

* * *

Each record here notes measured inhibition at 2 µM.
Target: recombinant CYP11B2 (Homo sapiens, UniProt P19099)
Sequence (P19099 25-503): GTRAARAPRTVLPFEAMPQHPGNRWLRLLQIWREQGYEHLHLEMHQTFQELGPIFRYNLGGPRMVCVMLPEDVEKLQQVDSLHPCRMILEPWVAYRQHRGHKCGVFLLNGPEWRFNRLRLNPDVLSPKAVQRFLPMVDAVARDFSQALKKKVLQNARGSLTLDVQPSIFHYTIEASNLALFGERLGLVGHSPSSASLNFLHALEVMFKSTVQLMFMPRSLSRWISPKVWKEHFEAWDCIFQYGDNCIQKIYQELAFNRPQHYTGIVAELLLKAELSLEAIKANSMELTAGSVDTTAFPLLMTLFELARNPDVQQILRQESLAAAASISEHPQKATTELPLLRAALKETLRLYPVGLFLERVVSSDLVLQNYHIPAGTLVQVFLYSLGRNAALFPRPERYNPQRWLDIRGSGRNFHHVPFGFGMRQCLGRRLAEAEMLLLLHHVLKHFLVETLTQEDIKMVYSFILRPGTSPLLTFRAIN
Assay: Inhibition of CYP11B2 activity in a reconstructed enzyme system (HPLC with UV detector)
Format: biochemical
Conditions: compounds 2_xx, 3_xx, 4_01; test compound final concentration ≤2 μM; corticosterone substrate; 30 minutes at 37° C.; read-out: Level of CYP11B2 activity inhibition

Would you please look over these solved cases?
{"compound": "CNc1cnc(-c2cncc3c2ccn3S(=O)(=O)c2cc(F)c(N3CC4CN(C)CC4C3)c(F)c2)cn1 (stereo not shown) [Compound 3_22]", "meas.value": "35 to 100%"}
{"compound": "CN1CC2CC1CN2c1c(F)cc(S(=O)(=O)n2ccc3c(-c4ccccn4)cncc32)cc1F (stereo not shown) [Compound 3_17]", "meas.value": "35 to 100%"}
{"compound": "CN1CC2CN(c3c(F)cc(S(=O)(=O)n4ccc5c(-c6ccc(C#N)nc6)cncc54)cc3F)CC2C1 (stereo not shown) [Compound 3_24]", "meas.value": "35 to 100%"}
{"compound": "CNc1ccc(-c2cncc3c2ccn3S(=O)(=O)c2cc(F)c(N3CCN(C)CC3)c(F)c2)cn1 [Compound 3_03]", "meas.value": "20 to 100%"}
{"compound": "O=S(=O)(c1cc(F)c(N2CCN(CC3CC3)CC2)c(F)c1)n1ccc2c(-c3ccccn3)cncc21 [Compound 2_02]", "meas.value": "35 to 100%"}
{"compound": "CNc1cnc(-c2cncc3c2ccn3S(=O)(=O)c2cc(F)c(N3CCN(C)CC3)c(F)c2)nc1 [Compound 3_08]", "meas.value": "20 to 100%"}

Item: O=S(=O)(c1cc(F)c(N2CCN(C3CC3)CC2)c(F)c1)n1ccc2c(-c3ccccn3)cncc21 [Compound 3_12] | inhibition at 2 µM: 20 to 100%

Source: patent US20260258036A1
